- Assay notes: Cell-based cytotoxicity analysis, WST-1 assay (HeLa cell)
- Study conditions: human, 10 µM, 48 h, vs DMSO, average of n=1 and n=2; read-out: HeLa viability (%) AVERAGE
Reported endpoint: viability at 48 h, 10 µM
Remember to quote the unit after the number.

Compound | Recorded measurement
CCOc1ccc(OCC(=O)Nc2cc(C)nn2-c2nc(C)c(CC)c(O)n2)cc1 | 70.1%
COc1ccc2ccccc2c1C1C=C(c2ccccc2)NC(=S)N1 (stereo not drawn) | 87.5%

Inquiry: Item COCCCNC(=O)C(=O)N/N=C/c1c(O)ccc2ccccc12 has what recorded viability at 48 h, 10 µM?
Reply text: 89.2%
